These data points were gathered from patent US11739098B2.

In this section we review reported pIC50 values for a set of compounds.
- SYSTEM: human TLR7 (Homo sapiens, UniProt Q9NYK1)
- Sequence (Q9NYK1 27-1049): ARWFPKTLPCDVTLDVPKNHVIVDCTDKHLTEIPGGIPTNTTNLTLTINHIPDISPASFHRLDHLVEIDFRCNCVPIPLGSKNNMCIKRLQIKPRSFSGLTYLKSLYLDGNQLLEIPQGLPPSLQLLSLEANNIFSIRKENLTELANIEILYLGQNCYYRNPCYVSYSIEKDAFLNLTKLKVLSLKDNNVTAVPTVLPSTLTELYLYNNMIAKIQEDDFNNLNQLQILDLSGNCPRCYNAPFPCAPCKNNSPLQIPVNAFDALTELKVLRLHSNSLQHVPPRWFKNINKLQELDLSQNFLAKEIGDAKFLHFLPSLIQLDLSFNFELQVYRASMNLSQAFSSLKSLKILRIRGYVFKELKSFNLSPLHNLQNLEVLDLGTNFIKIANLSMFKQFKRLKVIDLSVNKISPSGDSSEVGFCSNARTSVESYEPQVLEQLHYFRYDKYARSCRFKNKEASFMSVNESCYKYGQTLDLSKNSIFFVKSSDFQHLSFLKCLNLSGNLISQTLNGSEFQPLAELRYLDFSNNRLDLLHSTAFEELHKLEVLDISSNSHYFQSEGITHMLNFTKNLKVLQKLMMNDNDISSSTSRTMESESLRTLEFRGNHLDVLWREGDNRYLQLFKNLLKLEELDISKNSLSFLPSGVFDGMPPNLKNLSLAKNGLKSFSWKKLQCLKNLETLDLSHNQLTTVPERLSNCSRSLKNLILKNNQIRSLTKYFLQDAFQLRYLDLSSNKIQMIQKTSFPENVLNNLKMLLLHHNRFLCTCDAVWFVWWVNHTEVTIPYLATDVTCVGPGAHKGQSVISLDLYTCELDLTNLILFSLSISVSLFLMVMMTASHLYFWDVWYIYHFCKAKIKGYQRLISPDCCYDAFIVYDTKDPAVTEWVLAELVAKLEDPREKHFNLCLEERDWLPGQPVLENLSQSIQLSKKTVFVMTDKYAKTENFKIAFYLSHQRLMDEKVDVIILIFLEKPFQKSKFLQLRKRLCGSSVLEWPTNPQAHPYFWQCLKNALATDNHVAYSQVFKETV
- TEST_PROTOCOL: TLR7 inhibition reporter assay (HEK-Blue cells, SEAP reporter, gardiquimod stimulation)
- MEASUREMENT_CONTEXT: HEK-Blue cells overexpressing human TLR7, SEAP reporter, gardiquimod 7.5 μM
pIC50: −log10 of the molar value.

{"COMPOUND": "Cc1cc(-c2[nH]c3ccc(C4CCN(CC(=O)N(C)C)CC4)cc3c2C(C)C)cn2cc(C(=O)N(C)CCO)nc12 [Example 344]", "pIC50": "> 7.00"}
{"COMPOUND": "CNCCN1CCC(c2ccc3[nH]c(-c4ccc5ncnn5n4)c(C)c3c2)CC1 [Example 651]", "pIC50": "> 7.00"}
{"COMPOUND": "CC(=O)N1CCC(C(=O)N2CCC(c3ccc4[nH]c(-c5ccnc6[nH]ncc56)c(C(C)C)c4c3)CC2)CC1 [Example 646]", "pIC50": "6.00 to 7.00"}
{"COMPOUND": "Cc1cc(-c2[nH]c3ccc(C4CCNCC4)cc3c2C(C)C)cc2cn(C)nc12 [Example 138]", "pIC50": "> 7.00"}
{"COMPOUND": "CC(C)c1c(-c2ccnc3[nH]ncc23)[nH]c2ccc(C3CCN(C(=O)CNCCCN(C)C)CC3)cc12 [Example 575]", "pIC50": "> 7.00"}
{"COMPOUND": "CC(C)c1c(-c2ccnc3[nH]ncc23)[nH]c2ccc(C3CCN(C(=O)C4CCNCC4)CC3)cc12 [Example 649]", "pIC50": "6.00 to 7.00"}
{"COMPOUND": "COc1cc(-c2[nH]c3ccc(C4CCNCC4)cc3c2C(C)C)cc2nc(C)cn12 [Example 162]", "pIC50": "> 7.00"}
{"COMPOUND": "CC(C)c1c(-c2cc3cn[nH]c3cn2)[nH]c2ccc(C3CCNCC3)cc12 [Example 179]", "pIC50": "> 7.00"}
{"COMPOUND": "COc1cc(-c2[nH]c3ccc(C4CCNCC4)cc3c2C(C)C)c2ccccc2n1 [Example 105]", "pIC50": "> 7.00"}
{"COMPOUND": "CC(C)c1c(-c2cc(Cl)c3ncccc3c2)[nH]c2ccc(C3CCN(CC(C)(C)O)CC3)cc12 [Example 767]", "pIC50": "> 7.00"}
{"COMPOUND": "Cc1cc(-c2[nH]c3ccc(C4CCN(C5COC5)CC4)cc3c2C(C)C)cc2ccnn12 [Example 720]", "pIC50": "> 7.00"}
{"COMPOUND": "CC(C)c1c(-c2cnc3cn[nH]c3c2)[nH]c2ccc(C3CCNCC3)cc12 [Example 63]", "pIC50": "> 7.00"}
{"COMPOUND": "COc1cc(-c2[nH]c3ccc(C4CCN(C(=O)CN(C)C)CC4)cc3c2C(C)C)cc2nccn12 [Example 501]", "pIC50": "6.00 to 7.00"}
{"COMPOUND": "CNC(=O)CN1CCC(c2ccc3[nH]c(-c4ccn5ccnc5c4)c(CC(F)F)c3c2)CC1 [Example 446]", "pIC50": "> 7.00"}
{"COMPOUND": "CNCCN1CCC(c2ccc3[nH]c(-c4cccc5cccnc45)c(C)c3c2)CC1 [Example 662]", "pIC50": "4.30 to 6.00"}
{"COMPOUND": "Cc1c[nH]c2nccc(-c3[nH]c4ccc(C5CCNCC5)cc4c3C(C)C)c12 [Example 215]", "pIC50": "6.00 to 7.00"}
{"COMPOUND": "CC(C)c1c(-c2ccnc3[nH]ncc23)[nH]c2ccc(C3CCN(Cc4cccnc4)CC3)cc12 [Example 907]", "pIC50": "> 7.00"}
{"COMPOUND": "CNC(=O)CN1CCC(c2ccc3[nH]c(-c4cnc5ccnn5c4)c(C(C)C)c3c2)CC1 [Example 360]", "pIC50": "4.30 to 6.00"}
{"COMPOUND": "CCc1c(C)c(-c2[nH]c3ccc(C4CCNCC4)cc3c2C(C)C)cn2ccnc12 [Example 272]", "pIC50": "> 7.00"}
{"COMPOUND": "CNCCN1CCC(c2ccc3[nH]c(-c4ccnc5[nH]ccc45)c(C)c3c2)CC1 [Example 668]", "pIC50": "6.00 to 7.00"}

====

In this section we review reported pIC50 values for a set of compounds.
- SYSTEM: human TLR9 (Homo sapiens)
- Sequence (Q9NR96 26-1032): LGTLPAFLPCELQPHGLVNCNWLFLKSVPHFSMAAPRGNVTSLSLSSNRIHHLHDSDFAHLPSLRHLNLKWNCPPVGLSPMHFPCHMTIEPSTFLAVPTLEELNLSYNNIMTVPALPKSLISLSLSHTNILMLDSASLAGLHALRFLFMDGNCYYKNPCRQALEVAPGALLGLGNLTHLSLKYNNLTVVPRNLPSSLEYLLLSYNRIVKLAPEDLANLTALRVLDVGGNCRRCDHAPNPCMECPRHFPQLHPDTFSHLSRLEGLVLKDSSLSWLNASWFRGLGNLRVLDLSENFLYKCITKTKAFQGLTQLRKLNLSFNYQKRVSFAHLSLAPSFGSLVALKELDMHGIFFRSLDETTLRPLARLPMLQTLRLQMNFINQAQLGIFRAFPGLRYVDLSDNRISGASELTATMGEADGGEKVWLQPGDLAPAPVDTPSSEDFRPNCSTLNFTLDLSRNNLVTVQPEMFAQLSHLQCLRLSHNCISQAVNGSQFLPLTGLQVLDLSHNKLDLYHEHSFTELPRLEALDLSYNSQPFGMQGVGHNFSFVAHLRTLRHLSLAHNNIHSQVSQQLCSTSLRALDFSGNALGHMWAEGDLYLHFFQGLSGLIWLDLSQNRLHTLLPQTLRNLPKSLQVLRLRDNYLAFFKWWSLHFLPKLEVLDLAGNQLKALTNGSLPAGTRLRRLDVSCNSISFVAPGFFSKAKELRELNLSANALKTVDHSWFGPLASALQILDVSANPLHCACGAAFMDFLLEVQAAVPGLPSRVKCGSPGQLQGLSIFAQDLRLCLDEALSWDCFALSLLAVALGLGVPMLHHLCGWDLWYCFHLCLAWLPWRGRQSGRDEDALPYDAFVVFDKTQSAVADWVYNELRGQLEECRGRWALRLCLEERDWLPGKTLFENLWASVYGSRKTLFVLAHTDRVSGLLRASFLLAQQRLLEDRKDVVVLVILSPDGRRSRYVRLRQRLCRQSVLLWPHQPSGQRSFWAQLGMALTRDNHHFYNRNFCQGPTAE
- TEST_PROTOCOL: TLR9 inhibition reporter assay (HEK-Blue cells, SEAP reporter, ODN2006 stimulation)
- MEASUREMENT_CONTEXT: HEK-Blue cells overexpressing human TLR9, SEAP reporter, ODN2006 5 nM
pIC50: −log10 of the molar value.
REPORTED_PROPERTY: pIC50

{"COMPOUND": "CC(C)c1c(-c2ccc3c(N)noc3c2)[nH]c2ccc(C3CCNCC3)cc12", "REPORTED_PROPERTY": "pIC50", "RESULT": "6.00 to 7.00"}
{"COMPOUND": "CC(C)c1c(-c2ccc3c(O)noc3c2)[nH]c2ccc(C3CCNCC3)cc12", "REPORTED_PROPERTY": "pIC50", "RESULT": "4.30 to 6.00"}
{"COMPOUND": "CC(C)c1c(-c2ccnc3cnn(C)c23)[nH]c2ccc(C3CCNCC3)cc12 [Example 42]", "REPORTED_PROPERTY": "pIC50", "RESULT": "4.30 to 6.00"}
{"COMPOUND": "CCc1c(-c2ccnc3[nH]cc(Cl)c23)[nH]c2ccc(C3CCN(C4CCN(C(C)C)CC4)CC3)cc12", "REPORTED_PROPERTY": "pIC50", "RESULT": "6.00 to 7.00"}
{"COMPOUND": "CNCCN1CCC(c2ccc3[nH]c(-c4ccnc5[nH]ncc45)c(C(C)C)c3c2)C(F)C1 (stereo not drawn) [Example 675]", "REPORTED_PROPERTY": "pIC50", "RESULT": "6.00 to 7.00"}
{"COMPOUND": "CC(C)c1c(-c2ccnc3[nH]ncc23)[nH]c2ccc(C3CCN(Cc4ccccc4OCCCN(C)C)CC3)cc12", "REPORTED_PROPERTY": "pIC50", "RESULT": "6.00 to 7.00"}

====

- SYSTEM: human TLR7 (Homo sapiens)
- TEST_PROTOCOL: TLR7 inhibition reporter assay (HEK-Blue cells, SEAP reporter, gardiquimod stimulation)
- MEASUREMENT_CONTEXT: HEK-Blue cells overexpressing human TLR7, SEAP reporter, gardiquimod 7.5 μM
In this section we review reported IC50 values for a set of compounds.
REPORTED_PROPERTY: IC50

{"COMPOUND": "CC(C)c1c(-c2cnc3[nH]ncc3c2)[nH]c2ccc(C3CCN(C(=O)CN(C)C)CC3)cc12 [Example 562]", "REPORTED_PROPERTY": "IC50", "RESULT": "< 100 nM"}
{"COMPOUND": "CNC(=O)CN1CCC(c2ccc3[nH]c(-c4ccc5nccn5c4)c(C(C)C)c3c2)CC1 [Example 403]", "REPORTED_PROPERTY": "IC50", "RESULT": "< 100 nM"}
{"COMPOUND": "CNC(=O)CN1CCC(c2ccc3[nH]c(-c4ccc(C#N)c5ncccc45)c(C(C)C)c3c2)CC1 [Example 371]", "REPORTED_PROPERTY": "IC50", "RESULT": "< 100 nM"}
{"COMPOUND": "CCOc1cc(-c2[nH]c3ccc(C4CCN(CC(=O)N(C)C)CC4)cc3c2C(C)C)cc2ncnn12 [Example 350]", "REPORTED_PROPERTY": "IC50", "RESULT": "< 100 nM"}
{"COMPOUND": "Cc1nnn2ccc(-c3[nH]c4ccc(C5CCN(C6COC6)CC5)cc4c3C(C)C)cc12 [Example 743]", "REPORTED_PROPERTY": "IC50", "RESULT": "< 100 nM"}
{"COMPOUND": "CC(C)c1c(-c2ccnc3[nH]ncc23)[nH]c2ccc(C3CCN(C(=O)C[C@H](C)N)CC3)cc12 [Example 637]", "REPORTED_PROPERTY": "IC50", "RESULT": "< 100 nM"}
{"COMPOUND": "CC(C)c1c(-c2cnc3nccn3c2)[nH]c2ccc(C3CCN(CC(=O)N(C)C)CC3)cc12 [Example 363]", "REPORTED_PROPERTY": "IC50", "RESULT": "100 to 1000 nM"}
{"COMPOUND": "CC(C)c1c(-c2ccnc3[nH]ncc23)[nH]c2ccc(C3CCN(C(=O)c4cscn4)CC3)cc12 [Example 611]", "REPORTED_PROPERTY": "IC50", "RESULT": "< 100 nM"}
{"COMPOUND": "CNC(=O)CN1CCC(c2ccc3[nH]c(-c4cc(OC)n5cc(C)nc5c4)c(C(C)C)c3c2)CC1 [Example 335]", "REPORTED_PROPERTY": "IC50", "RESULT": "100 to 1000 nM"}
{"COMPOUND": "CC(C)c1c(-c2cn3ccnc3cc2Cl)[nH]c2ccc(C3CCN(CC(=O)N(C)C)CC3)cc12 [Example 428]", "REPORTED_PROPERTY": "IC50", "RESULT": "< 100 nM"}
{"COMPOUND": "Cc1cc(-c2[nH]c3ccc(C4CCN(CCCS(C)(=O)=O)CC4)cc3c2C(C)C)cn2nnnc12 [Example 787]", "REPORTED_PROPERTY": "IC50", "RESULT": "< 100 nM"}
{"COMPOUND": "Cc1ccnc2c1c(-c1[nH]c3ccc(C4CCN(C5CCOCC5)CC4)cc3c1C(C)C)cn2C [Example 689]", "REPORTED_PROPERTY": "IC50", "RESULT": "< 100 nM"}
{"COMPOUND": "CC(C)c1c(-c2ccn3c(=O)[nH]nc3c2)[nH]c2ccc(C3CCNCC3)cc12 [Example 199]", "REPORTED_PROPERTY": "IC50", "RESULT": "< 100 nM"}
{"COMPOUND": "CC(C)c1c(-c2n[nH]c3nc[nH]c(=O)c23)[nH]c2ccc(C3CCNCC3)cc12 [Example 21]", "REPORTED_PROPERTY": "IC50", "RESULT": "1000 to 50000 nM"}
{"COMPOUND": "CC(C)c1c(-c2ccnc3[nH]ncc23)[nH]c2ccc(C3CCN(Cc4ccc(Oc5ncccn5)cc4)CC3)cc12 [Example 899]", "REPORTED_PROPERTY": "IC50", "RESULT": "< 100 nM"}
